- System: UACC-257 melanoma
- experimental_protocol: NCI tumour cell line growth inhibition, 48 h
observed_property: TGI

| compound | test_system | test_value |
| --- | --- | --- |
| Oc1ccc(-c2cn3cc(Cl)sc3n2)cc1 | UACC-257 melanoma | > 100 µM |
| COc1ccc(NC(=O)CC(=O)N2N=C(N(CCC#N)c3cccc(C)c3)CC2c2ccccc2)cc1 (centres undefined) | UACC-257 melanoma | > 100 µM |
| NC1=CC(=O)c2nc3ccccc3c3ccnc1c23 | UACC-257 melanoma | 20 µM |
| CC1=NN(C(=O)CC(=O)Nc2cccc(C)c2)C(=O)C1N=Nc1ccc(S(=O)(=O)c2ccc(N=NC3C(=O)N(C(=O)CC(=O)Nc4cccc(C)c4)N=C3C)cc2)cc1 (centres undefined) | UACC-257 melanoma | > 100 µM |
| CC(=O)c1ccc(NC(=O)C(=O)C(C(=O)c2ccc(Cl)c(Cl)c2)C2OC(=O)c3ccccc32)cc1 (centres undefined) | UACC-257 melanoma | > 100 µM |
| Cn1c(=O)n2c(-c3ccccc3)c(-c3ccccc3)n2c1=O | UACC-257 melanoma | > 100 µM |
| COc1ccc(-c2nc(N3CCOCC3)c3sc(CN(C)c4ncc(C(=O)NO)cn4)cc3n2)cn1 | UACC-257 melanoma | 0.0466 µM |
| CCOC(=O)c1nnsc1NN=C(C)C | UACC-257 melanoma | > 100 µM |
| CC[C@@H]1CC[C@@H]2[C@H](CC[C@]3(C)[C@@H](O)CC[C@@H]23)[C@H]1CO | UACC-257 melanoma | > 100 µM |

====

- Tested on: KM20L2 colon
- experimental_protocol: NCI tumour cell line growth inhibition, 48 h

| molecule | test_system | TGI |
| --- | --- | --- |
| CC(C(=O)O)/C(=C\c1ccc2c(c1)OCO2)C(=O)O (centres undefined) | KM20L2 colon | > 100 µM |
| CCCCCCCCCCCCCCCCCC(=O)OCC(C[As](=O)(O)O)OC(=O)CCCCCCCCCCCCCCCCC (centres undefined) | KM20L2 colon | > 100 µM |
| c1ccc(CN2CCCCC(Sc3ccccc3)CC2)cc1 (centres undefined) | KM20L2 colon | 76.3 µM |
| CC(=O)c1ccc(NC(=O)C(=O)C(C(=O)c2ccc(Cl)c(Cl)c2)C2OC(=O)c3ccccc32)cc1 (centres undefined) | KM20L2 colon | > 100 µM |
| CN(C)[C@H]1CC[C@H]2[C@@H]3CCC4C[C@@H](NC(=O)NC(Cc5ccccc5)c5nccs5)CC[C@]4(C)[C@H]3CC[C@]12C (some centres undefined) | KM20L2 colon | 2.81 µM |
| COc1ccc(C(=O)C(C(=O)C(=O)NC2C3CC4CC(C3)CC2C4)c2ccc(OC)cc2)cc1 (centres undefined) | KM20L2 colon | > 100 µM |
| Cc1c2cc[n+](C)cc2c(C)c2c1[nH]c1ccc(Cl)cc12 | KM20L2 colon | 46 µM |
| O=C1OC(c2ccccc2)=N/C1=C\c1cc(Cl)ccc1Cl | KM20L2 colon | > 100 µM |
| CCCc1nc(NC#N)nc(C(=O)NC23CC4CC(CC(C4)C2)C3)c1C | KM20L2 colon | > 100 µM |

====

- Tested on: XF 498 CNS
- experimental_protocol: NCI tumour cell line growth inhibition, 48 h

| compound | u | inequality_symbol | TGI |
| --- | --- | --- | --- |
| Brc1ccccc1C=NC12CC3CC(CC(C3)C1)C2 | µM | > | 100 |
| N#CCCOCN(CO)c1nc(N(CO)COCCC#N)nc(N(CO)COCCC#N)n1 | µM | = | 31.5 |
| O=C(Nc1cccc([N+](=O)[O-])c1)C(=O)C(C(=O)c1ccccc1F)C1OC(=O)C2C=CC=CC21 (stereo not given) | µM | > | 100 |
| CSc1nc(C)c(Br)c(=O)n1C1OC(COC(C)=O)C(OC(C)=O)C(OC(C)=O)C1OC(C)=O (stereo not given) | µM | = | 43.6 |
| CC(=O)N1CC(=O)NC1=S | µM | > | 100 |

====

- Test system: NCI-H460 lung
- experimental_protocol: NCI tumour cell line growth inhibition, 48 h
Think of 20 µM as a floor: if TGI stands on it or above, it is y; beneath it, n.

| compound | class_assignment |
| --- | --- |
| O=C1CCC(N2Cc3c(C#CCCCNC(=O)c4cc5c(o4)C(=O)c4ccccc4C5=O)cccc3C2=O)C(=O)N1 (centres undefined) | n |
| CC1=NC(C(C)C)C(=O)O1 (centres undefined) | y |
| CC(C)(O)CO/N=C1\C(c2c(O)[nH]c3ccccc23)=Nc2ccccc21 | n |
| COc1ccc2nc3cc([N+](=O)[O-])ccc3c(Nc3ccc(S(=O)(=O)N=C(N)N)cc3)c2c1 | y |
| S=C(c1ccc2c(c1)OCO2)N1CCN(c2cccc(Cl)c2)CC1 | y |
| O=C(NCCNc1nccc(-c2c(-c3cccc(O)c3)nc3sccn23)n1)Nc1cccc(C(F)(F)F)c1 | y |
| CCC1CC(C)=CCN1S(=O)(=O)c1ccc(C)cc1 (centres undefined) | y |
| O=C(O)c1ccccc1-c1ccccc1C(=O)Nc1ccc2c(c1)[nH]c(=O)c1ccccc12 | y |
| CCC1c2[nH]c3ccccc3c2C[C@H]2C(=O)NC(CCCCNC(=O)OC(C)(C)C)C(=O)N12 (some centres undefined) | y |

====

- System: SF-539 CNS
- experimental_protocol: NCI tumour cell line growth inhibition, 48 h
# log10 TGI annotations
observed_property: log10 TGI (log10 of the value in µM)

| molecule | test_system | log10 TGI |
| --- | --- | --- |
| N#Cc1c(N)nc(NCc2ccccc2)c(C#N)c1-c1ccccc1Cl | SF-539 CNS | 1.61 |
| C/C(=C\CCc1ccsc1)CC/C=C(\C)CCCN1CCC(CO)CC1 | SF-539 CNS | 0.53 |
| CC(C)NC(=O)OCc1c(COC(=O)NC(C)C)c(-c2ccc(Cl)c(Cl)c2)n2c1CCC2 | SF-539 CNS | 1.82 |
| COc1ccc(-c2nc(N3CCOCC3)c3sc(CN(C)c4ncc(C(=O)NO)cn4)cc3n2)cn1 | SF-539 CNS | -0.79 |
| CNCCCNC1(c2cc3ccccc3s2)CCCCC1 | SF-539 CNS | 0.87 |
| O=C(NC1CCCCC1)NS(=O)(=O)c1ccc(-n2nc3c(c2-c2ccc(Cl)cc2)Cc2ccccc2-3)cc1 | SF-539 CNS | 1.44 |
| C=CC[C@@H]1/C=C(\C)C[C@H](C)C[C@H](OC)[C@H]2O[C@@](O)(C(=O)C(=O)N3CCCC[C@H]3C(=O)O[C@H](/C(C)=C/C3CC[C@@H](O)[C@H](OC)C3)[C@H](C)[C@@H](O)CC1=O)[C@H](C)C[C@@H]2OC (stereo not given in full) | SF-539 CNS | 1.53 |
| CCOC(=O)c1c(Cl)c2c(n1Cc1cccc(OC)c1)-c1oncc1CC2 | SF-539 CNS | 1.03 |
| CC1C2(C)OC(=N)C(C#N)(C(C)O2)C1(C#N)C#N (stereo not given) | SF-539 CNS | 1.67 |
| O=C(NCCNc1nccc(-c2c(-c3ccc(F)cc3)nc3sccn23)n1)c1ccccc1 | SF-539 CNS | 1.47 |
| S=C(c1ccc2c(c1)OCO2)N1CCN(c2cccc(Cl)c2)CC1 | SF-539 CNS | 0.91 |

====

- Test system: K-562 leukemia
- experimental_protocol: NCI tumour cell line growth inhibition, 48 h

| molecule | GI50 |
| --- | --- |
| COc1cccc(Cn2c(-c3nonc3NC(C)=O)nc3ccccc32)c1 | 4.02 µM |
| CCC[CH2][Sn]1([CH2]CCC)[O]CC(CN2CCOCC2)[O]1 (stereo not given) | 2.43 µM |
| OCC1OC(n2cnc3c2NC=NC[C@H]3O)CC1O (stereo not given in full) | > 588 µM |
| CCn1c(-c2nonc2N)nc2cncc(C(=O)NCCNC)c21 | > 25 µM |
| O=C1CCC(N2Cc3c(C#CCCCNC(=O)c4cc5c(o4)C(=O)c4ccccc4C5=O)cccc3C2=O)C(=O)N1 (stereo not given) | 3.11 µM |
| Cn1ccnc1C(=O)/C=C/c1ccc(CC(=O)Nc2ccc(F)cc2)cc1 | 0.823 µM |
| O=C(NCCNc1nccc(-c2c(-c3ccc(F)cc3)nc3sccn23)n1)c1ccccc1 | 7.72 µM |
| CCN(CC)CCCCNc1ncc2cc(-c3cc(OC)cc(OC)c3)c(NC(=O)NC(C)(C)C)nc2n1 | 2.95 µM |
| CS(=O)(=O)c1ccc(Oc2cc(F)cc(C#N)c2)c2c1[C@H](O)C(F)(F)C2 | > 100 µM |
| O=C(NCCNc1nccc(-c2c(-c3cccc(O)c3)nc3sccn23)n1)Nc1cccc(C(F)(F)F)c1 | 3.42 µM |
